system: RPMI-8226; assay: Antiproliferative activity against human RPMI 8226 cells assessed as reduction in cell viability measured after 72 hrs by XTT assay; type: functional, cell-based; details: RPMI-8226, 72 h
parameter-measured: pIC50
Quick note: pIC50 values are minus log10 of concentrations in mol/L.

[[record]]
molecule_smiles = "CCCCCCCCCCCCCCCCOC(=O)/C=C/c1ccc(O)c(O)c1"
reading = 5.52


Moving on to the next compound.
GET /value?item= CCCCCCCCCCCC(=O)O[C@H]1[C@H](O[C@@H]2[C@H]3OC(=O)CCCCCCCCC[C@H](CCCCC)O[C@@H]4O[C@H](C)[C@H](O)[C@H](O)[C@H]4O[C@H](O[C@H]2C)[C@@H]3O)O[C@@H](C)[C@H](O[C@@H]2O[C@@H](C)[C@H](OC(=O)CCCCC)[C@@H](O)[C@H]2O)[C@H]1O[C@@H]1O[C@@H](C)[C@H](O)[C@@H](O)[C@H]1O &field=pIC50 returns 4.97
